meta.source: the OPERA property sets (Mansouri et al. 2018)

observation_type: logP
Please give only the number in your answer, with no unit.

Below, 2 molecules whose answers are already recorded.
molecule: CCOC(=O)/C(=C\c1ccccc1Cl)C(C)=O
observation_type: logP
numeric_result: 2.84

molecule: O=C1CC(c2ccc(C(F)(F)F)cc2)Cc2c1c(=O)c1cc(Cl)ccc1n2O (stereo not given)
observation_type: logP
numeric_result: 3.46

Reported logP of C#CC1(O)CCCCC1 : 1.73

The molecule identified as CCCC(=O)OCC1CCC(n2cnc3c(=O)[nH]cnc32)O1 (stereo not given) registered its logP at 0.11

Record CC(C)Cc1cc(C(=O)NN)ccn1 . Reported logP: 1.02

###

observation_type: logP
Write no unit; give the number alone.

Worked examples, 4 molecules total:
molecule: Nc1cccc([N+](=O)[O-])c1
observation_type: logP
numeric_result: 1.37
--
molecule: N#Cc1ccc(OCC(=O)O)cc1
observation_type: logP
numeric_result: 0.93
--
molecule: O=C(Oc1ccccc1)c1ccccc1
observation_type: logP
numeric_result: 3.59
--
molecule: CNC1CC2CCC1c1ccccc12 (centres undefined)
observation_type: logP
numeric_result: 2.68

Query CC(=O)Nc1ccc(OC(C)=O)cc1 yields logP of 1.05

For this molecule ( FC(F)(F)c1cccc(C(F)(F)F)c1 ), measured logP is 3.83

Reported logP ( FC(F)(F)c1cccc2cccnc12 ) = 2.5

###

logP for assorted molecules
Keep the answer to the number alone.

molecule: OCc1cccc(C(F)(F)F)c1
logP: 2.24
--
molecule: CC(C)CC(N)Cc1ccccc1 (stereo unspecified)
logP: 3.29
--
molecule: CCCOc1ccccc1
logP: 3.18

// logP value for Nc1ccc(C(=O)O)c(I)c1 : 1.65

So for CCOC(=O)C(=Cc1ccc(Br)cc1)C(=O)OCC , the logged logP turned out to be 4.02

###

observation_type: logP
Quick one: just the number, no unit, thanks!

Solved entries (count: 5):
compound: CN(C)c1ccc(Cl)nn1
numeric_result: 0.98

compound: CCc1cc(OC)c(CC(C)N)cc1OC (configuration not stated)
numeric_result: 2.81

compound: CN(C)/N=N/c1ccccc1I
numeric_result: 3.5

compound: COc1ccc(C(N)=O)cc1
numeric_result: 0.86

compound: CN(C)C(=S)NN
numeric_result: -0.3

Lab note: NC(=O)CBr gave logP of -0.52

According to the records, this compound CCC(=O)C1(c2cccc(OC(=O)C(C)(C)C)c2)CCN(C)CC1 displays logP of 2.59

###

// map logP onto a label; ranges interval 1 (below 1), interval 2 (1 to below 3), interval 3 (3 or more)

Illustrative cases are given below, each with its answer.
compound: Cc1n[nH]c(C(=O)NCCc2ccccc2)c1[N+](=O)[O-]
category: interval 2
--
compound: CC1CO1 (stereo unspecified)
category: interval 1
--
compound: CNC(=O)C=Cc1ccccc1
category: interval 2
--
compound: CCCCCCOC(=O)n1cnc(CC(NC(=O)C2CCC(=O)N2)C(=O)N2CCCC2C(N)=O)c1 (stereo unspecified)
category: interval 1
--
compound: NC(=O)CCCCOC(=O)c1ccccc1
category: interval 2
--
compound: CC(=O)Oc1c[nH]c2ccccc12
category: interval 2

## Task Please let me know in which category the item CC(=O)c1ccncc1 belongs.
## Result interval 1

## Task Note: place this compound into its band. Item: CCC(C)(C)Cl
## Result interval 2

## Task Which class holds COc1cc(C(O)CO)ccc1O (stereo unspecified) ?
## Result interval 1

###

The reader will find reported logP values listed item by item below.
Field format: numeric only.

compound: O=C(COc1ccccc1)Nc1ccccc1
numeric_result: 2.73

The value of logP measured for the compound NS(=O)(=O)c1ccc(S(=O)(=O)CCO)s1 turned out to be -0.54

Briefly, logP measured for CC(C)COC(=O)n1cnc(CC(NC(=O)C2CCC(=O)N2)C(=O)N2CCCC2C(N)=O)c1 (configuration not stated) : -0.44

GET /value?item= CC(C)c1cc([N+](=O)[O-])cc([N+](=O)[O-])c1O &field=logP returns 3.1

Summary for this compound, O=C(NP(=O)(N1CC1)N1CC1)c1ccc(Cl)cc1 : logP is 0.97

So for N=C(N)NC(=O)Nc1ccc(Cl)cc1 , the logged logP turned out to be 1.78

logP reading for COC(=O)CC#N : -0.47

###

Lab note: compare logP against 1. Equal or greater, write true (1). Smaller, write false (0).

Previously resolved entries follow.
molecule: O=CNc1ccc2[nH]ccc2c1
category: true (1)
--
molecule: NC(=O)C(Cl)Cl
category: false (0)
--
molecule: Brc1ccc(-c2ccc(Br)cc2)cc1
category: true (1)
--
molecule: Nc1ccc(C(=O)Oc2ccc(F)cc2)c(O)c1
category: true (1)
--
molecule: CC1(C)S[C@@H]2[C@H](NC(=O)COc3ccccc3)C(=O)N2[C@H]1C(=O)O
category: true (1)

## Task Given the entry COP(=S)(OC)Oc1ccc([N+](=O)[O-])c(C(C)C)c1 , answer whether its logP meets or surpasses 1.
## Result true (1)

## Task Form field: logP at least 1? Entry: c1ccc2c(c1)Cc1ccccc1C2
## Result true (1)

## Task Threshold query (logP >= 1) on CC(C)CO
## Result false (0)

###

observation_type: logP

Observe how each entry below is paired with its result.
mol_smiles: Oc1cccc(Br)c1
logP: 2.63
--
mol_smiles: FC(F)(F)c1ccc2cccnc2c1
logP: 3.02
--
mol_smiles: CN1CCCC1
logP: 0.92
--
mol_smiles: O=C1NC(=O)[C@@]2(CCOc3ccc(F)cc32)N1
logP: 0.78
--
mol_smiles: CC(=O)NC(=O)C1CCC1
logP: -0.4
--
mol_smiles: CCCCCCCOC(=O)C(C(=O)OCCCCCCC)=C1SCCS1
logP: 7.6
--
mol_smiles: CN(C)S(=O)(=O)c1ccc(N)cc1
logP: 0.67
--
mol_smiles: NC(=O)c1cc([N+](=O)[O-])cc([N+](=O)[O-])c1
logP: 0.83

Cc1ccc(NC(=O)N(C)C)cc1Cl has a reported logP of 2.41

For reference, reported logP for C=CCC(CC=C)(NC(C)=O)C(N)=O stands at 0.05

Measured logP of CC(Cl)(Cl)Cl : 2.49

# logP (compound: Cc1ccc(O)c2ncccc12 ) is 2.37

Field logP (entry O=C1C=CC(=O)c2c(O)cccc21 ) reads 1.92

Quick note, logP for O=CO landed at -0.54

Just so you know, measured logP for CN(C)c1ccc(NS(=O)(=O)c2ccc(N)cc2)cc1 came out at 1.57

###

Threshold 2. logP below it: Condition met. logP at it or above: Condition not met.

Use these answered entries as a reference point.
compound: CCCCC(NC(C)=O)C(=O)OC (stereo not drawn)
category: Condition met

compound: CC(=O)c1ccnc2cc(Cl)ccc12
category: Condition not met

compound: c1ccc2c(c1)OCO2
category: Condition not met

compound: CCCCNc1ccccc1
category: Condition not met

compound: Cc1cc2[nH]c(=O)c(=O)[nH]c2cc1C
category: Condition met

compound: N#Cc1cccc(O)c1
category: Condition met

compound: CCOC(=O)CON=Cc1ccc(OCC(=O)OCC)c(OC)c1
category: Condition met

Now look at this entry.
## Task Please indicate whether the reported logP of O=C(O)CCc1ccccc1 is strictly below 2.
## Result Condition met

###

observation_type: logP
Lab note: jot the number down without any unit.

compound: Cc1cccc(S(N)(=O)=O)c1
logP: 0.85

compound: O=C(NP(=O)(N1CC1)N1CC1)c1cccc(I)c1
logP: 1.91

compound: CC(=O)[C@@]1(O)CC[C@H]2[C@@H]3C[C@H](C)C4=CC(=O)C=C[C@]4(C)[C@@]3(F)[C@@H](O)C[C@@]21C
logP: 2

Memo: CNC(=O)OCc1c2c(n3c1C(OC(C)=O)CC3)C(=O)C(Cl)=C(OC)C2=O (configuration not stated) , reported logP: 2.08

Looking up CNC(=O)Oc1ccc(C)c(C)c1 , I found its logP recorded as 2.09

###

The entries below are paired with their reported logP.
Answer using only a numeral; do not append any unit.

Please review the following examples before continuing.
compound: Clc1ccc(-c2cc(Cl)c(Cl)c(Cl)c2Cl)c(Cl)c1
numeric_result: 7.44
--
compound: CCCCCCOC(=O)n1cnc(C)c1CSCCNC(=NC#N)NC
numeric_result: 3.1
--
compound: COc1c(C)cccc1C
numeric_result: 3.02

The measured logP associated with c1ccc2c(c1)nnc1ccccc12 reads 2.4

Entry CCCCCCCBr ; logP = 4.36

Sure, the documented logP for COc1cc2c(c(OC)c1OC)-c1ccc(N)c(=O)cc1[C@@H](NC(C)=O)CC2 is 0.3

response.value for CCOC(=O)c1c[nH]cc1C (field: logP) = 2.14

Lab note: CC(=O)Nc1ccncc1 gave logP of 0.5

Just so you know, measured logP for CC(=O)c1ccc(N)cc1 came out at 0.83

// CCC1(CCC(C)C)C(=O)NC(=O)NC1=O : logP value = 2.07

// sample COC(=O)c1ccccc1C , its logP was 2.75

Notebook: N#CC(Cl)(Cl)Cl , logP read as 2.09

The compound O=C(O)c1cccc([N+](=O)[O-])c1 showed logP equal to 1.83
